setup.conditions: 331.15 K; 100 kPa; Liquid; Vibrating tube method
This listing pairs compounds with measured mass density.
# number only, unit kg/m3 dropped from output

structure.string: CC[N+](C)(C)CCCO.O=S(=O)([N-]S(=O)(=O)C(F)(F)F)C(F)(F)F
mass density (kg/m3): 1434.7
//
structure.string: CC[N+](C)(C)CCOC.O=S(=O)([N-]S(=O)(=O)C(F)(F)F)C(F)(F)F
mass density (kg/m3): 1400.4
//
structure.string: C[N+](CCO)(CCO)CCO.O=S(=O)([N-]S(=O)(=O)C(F)(F)F)C(F)(F)F
mass density (kg/m3): 1537.2
//
structure.string: CC[N+](CCO)(CCO)CCO.O=S(=O)([N-]S(=O)(=O)C(F)(F)F)C(F)(F)F
mass density (kg/m3): 1500.9
//
structure.string: CCCC[N+](CCO)(CCO)CCO.O=S(=O)([N-]S(=O)(=O)C(F)(F)F)C(F)(F)F
mass density (kg/m3): 1428.1
//
structure.string: CC[N+](C)(CCO)CCO.O=S(=O)([N-]S(=O)(=O)C(F)(F)F)C(F)(F)F
mass density (kg/m3): 1485.8

# context switch: different compound, same mass density
For CCCC[N+](C)(C)CC.O=S(=O)([N-]S(=O)(=O)C(F)(F)F)C(F)(F)F , write its mass density.
1342.9
